These data points were gathered from the OligoGym collection.

target: UBE2J1; assay: reporter assay of Huesken 2005; conditions: siRNA; note: test concentration or dose not given here
Oligonucleotides are written 5' to 3', each unit as a sugar letter and its base; * is a phosphorothioate linkage, no mark a phosphodiester; rarer units and linkages stand in square brackets, end groups in braces. Plain capitals give the bases only. d = 2'-deoxy (DNA); r = 2'-OH (RNA)
METRIC: normalised inhibition (eCFP-eYFP dual reporter) (%)
Report as a plain number; the unit % is understood.

Would you please look over these solved cases?
sense rUrUrGrCrCrUrUrUrArArArArUrCrUrGrGrArAdTdT / antisense rUrUrCrCrArGrArUrUrUrUrArArArGrGrCrArAdCdA	70.5
sense rUrCrUrGrUrUrUrGrArGrCrArUrCrUrCrArGrGdTdT / antisense rCrCrUrGrArGrArUrGrCrUrCrArArArCrArGrAdTdT	56

Kindly review the next substance as well.
Need normalised inhibition (eCFP-eYFP dual reporter), item sense rGrCrCrUrUrUrArArArArUrCrUrGrGrArArGrCdTdT / antisense rGrCrUrUrCrCrArGrArUrUrUrUrArArArGrGrCdAdA
50.4

----------
molecular target: UBE2L3; assay: reporter assay of Huesken 2005; details: siRNA
Oligonucleotides are written 5' to 3', each unit as a sugar letter and its base; * is a phosphorothioate linkage, no mark a phosphodiester; rarer units and linkages stand in square brackets, end groups in braces. Plain capitals give the bases only. d = 2'-deoxy (DNA); r = 2'-OH (RNA)
METRIC: normalised inhibition (eCFP-eYFP dual reporter) (%)
Report as a plain number; the unit % is understood.

Would you please look over these solved cases?
sense rCrCrGrUrArArCrArUrCrCrArGrGrUrUrGrArUdTdT / antisense rArUrCrArArCrCrUrGrGrArUrGrUrUrArCrGrGdAdA	61.4
sense rArArGrCrCrArGrCrArArCrCrArArArArCrCrGdTdT / antisense rCrGrGrUrUrUrUrGrGrUrUrGrCrUrGrGrCrUrUdCdC	41.7
sense rCrArGrCrArArCrCrArArArArCrCrGrArCrCrAdTdT / antisense rUrGrGrUrCrGrGrUrUrUrUrGrGrUrUrGrCrUrGdGdC	60
sense rCrArArCrCrArArArArCrCrGrArCrCrArArGrUdTdT / antisense rArCrUrUrGrGrUrCrGrGrUrUrUrUrGrGrUrUrGdCdT	87

Kindly review the next substance as well.
Need normalised inhibition (eCFP-eYFP dual reporter), item sense rUrCrCrUrGrArCrArArCrCrCrUrCrCrArUrArUdTdT / antisense rArUrArUrGrGrArGrGrGrUrUrGrUrCrArGrGrAdAdC
69.7

----------
Listing of entries alongside the reported normalised inhibition (eCFP-eYFP dual reporter).
target: CDC34; experiment: reporter assay of Huesken 2005; settings: siRNA
Oligonucleotides are given in HELM: sugar(base)linkage, 5' to 3'; d 2'-deoxyribose, r ribose, m 2'-O-methylribose, p phosphate. ss, as = sense and antisense strand
Report as a plain number; the unit % is understood.

Would you please look over these solved cases?
RNA1{r(A)p.r(A)p.r(G)p.r(A)p.r(U)p.r(G)p.r(U)p.r(G)p.r(G)p.r(C)p.r(A)p.r(C)p.r(C)p.r(C)p.r(U)p.r(A)p.r(A)p.r(C)p.r(A)p.d(T)p.d(T)}|RNA2{r(U)p.r(G)p.r(U)p.r(U)p.r(A)p.r(G)p.r(G)p.r(G)p.r(U)p.r(G)p.r(C)p.r(C)p.r(A)p.r(C)p.r(A)p.r(U)p.r(C)p.r(U)p.r(U)p.d(G)p.d(G)}$$$RNA1{StrandType:ss}|RNA2{StrandType:as}$	36.7
RNA1{r(C)p.r(U)p.r(A)p.r(C)p.r(G)p.r(A)p.r(G)p.r(G)p.r(G)p.r(C)p.r(G)p.r(G)p.r(C)p.r(U)p.r(A)p.r(C)p.r(U)p.r(U)p.r(C)p.d(T)p.d(T)}|RNA2{r(G)p.r(A)p.r(A)p.r(G)p.r(U)p.r(A)p.r(G)p.r(C)p.r(C)p.r(G)p.r(C)p.r(C)p.r(C)p.r(U)p.r(C)p.r(G)p.r(U)p.r(A)p.r(G)p.d(T)p.d(A)}$$$RNA1{StrandType:ss}|RNA2{StrandType:as}$	59.8

Kindly review the next substance as well.
Need normalised inhibition (eCFP-eYFP dual reporter), item RNA1{r(C)p.r(A)p.r(A)p.r(G)p.r(G)p.r(C)p.r(G)p.r(C)p.r(C)p.r(G)p.r(G)p.r(C)p.r(G)p.r(C)p.r(C)p.r(C)p.r(G)p.r(A)p.r(C)p.d(T)p.d(T)}|RNA2{r(G)p.r(U)p.r(C)p.r(G)p.r(G)p.r(G)p.r(C)p.r(G)p.r(C)p.r(C)p.r(G)p.r(G)p.r(C)p.r(G)p.r(C)p.r(C)p.r(U)p.r(U)p.r(G)p.d(G)p.d(T)}$$$RNA1{StrandType:ss}|RNA2{StrandType:as}$
26.8
